# Test system: U2OS
# Assay procedure: Multiplex assay against U2OS
# Format: toxicity, cell-based
# Condition set: human, 12 h, 1 µM, compound concentration 1 uM, replicate 2
Assay readout: Population Tubulin-Different-Phenotype (%)

>>> print(df.to_string())
                                   molecule  value_observed
0  O=C(NCCO)c1cccc(-c2cc(Nc3ccc(OC(F)(F)F)cc3)ncn2)c1               4
1  COc1cc(NC(=O)CCN2CCC(OC(=O)Nc3ccccc3-c3ccccc3)CC2)c(Cl)cc1CNC[C@H](O)c1ccc(O)c2[nH]c(=O)ccc12               7
2   CNC[C@H](O)c1ccc(O)c(O)c1 [EPINEPHRINE]               4
